Source: paper PMC9911399

# experimentalTarget: T1, RBFOX1 RRM (Homo sapiens, UniProt Q9NWB1 109-208)
# T1 sequence: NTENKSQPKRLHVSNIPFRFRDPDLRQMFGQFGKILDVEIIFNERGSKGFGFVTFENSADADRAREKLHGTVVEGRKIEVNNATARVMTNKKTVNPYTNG
# measurementDescription: EMSA; HiTS-Eq, 1 nM pool, 10 min; buffer printed only for the single-RNA assays: 10 mM Tris pH 7.5, 150 mM NaCl, 3.4 mM EDTA, 0.001% NP-40, 30 C
# conditionLabel: tags: His6 N-terminal (pET28a); label: 5' 32P
Over roughly 16,000 sequences, “ka relative to ugcaugu” has its median near 0.0091; the highest 2% begin near 0.032. The entries come from a sample that favours the highest values as a whole.
Provide the recorded binding signal for the entries that follow.

Query: Using the record for GAAAAUG (DNA:RNA) RNA: GGGAGACCGGAAUUCAGAUUGUCCGAAAAUGUUAAAUCCCGUCGUAGCCACCA DNA 1: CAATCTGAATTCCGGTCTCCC DNA 2: TGGTGGCTACGACGGGATT , report its binding signal.
Result: 0.00709 KA relative to UGCAUGU

Query: Using the record for GUGAAUA (DNA:RNA) RNA: GGGAGACCGGAAUUCAGAUUGUCCGUGAAUAUUAAAUCCCGUCGUAGCCACCA DNA 1: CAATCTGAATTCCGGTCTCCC DNA 2: TGGTGGCTACGACGGGATT , report its binding signal.
Result: 0.00781 KA relative to UGCAUGU

Query: Using the record for GGUAUUA (DNA:RNA) RNA: GGGAGACCGGAAUUCAGAUUGUCCGGUAUUAUUAAAUCCCGUCGUAGCCACCA DNA 1: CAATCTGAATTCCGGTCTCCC DNA 2: TGGTGGCTACGACGGGATT , report its binding signal.
Result: 0.00455 KA relative to UGCAUGU

Query: Using the record for AUUACAA (DNA:RNA) RNA: GGGAGACCGGAAUUCAGAUUGUCCAUUACAAUUAAAUCCCGUCGUAGCCACCA DNA 1: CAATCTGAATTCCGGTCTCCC DNA 2: TGGTGGCTACGACGGGATT , report its binding signal.
Result: 0.000272 KA relative to UGCAUGU
